Listed below: melting point values for each entry.

Record excerpt, results attached:
INSERT INTO measurements (compound, assaymetric, assayresult) VALUES
  ('C=Cc1cc(C)cc(C)c1CC(=O)N(C)C1(C#N)CCN(OC)CC1', 'melting point', '148 to 151 °C'),
  ('CN[C@@]1(C)CCN(c2c(-c3cccc(F)c3)c(C)c(C#N)c3nc(C(=O)N(C)C)oc23)C1', 'melting point', '178 to 180 °C'),
  ('Cc1nccn1-c1cccc(C2=Nc3ccc(-c4ccc(F)cc4)cc3NC(=O)C2)c1', 'melting point', '227 °C'),
  ('O=C(c1c[nH]c(C(=O)CCl)c1)c1ccc2ccccc2c1', 'melting point', '175 to 177 °C'),
  ('CCCCN1CCC(CNC(=O)c2ccc(N)n3cc(-c4ccccc4)nc23)CC1', 'melting point', '221 °C');

INPUT: Given O=C(O)c1cccc2c1CCc1cccc(O)c1S2 , state its recorded melting point.
OUTPUT: 171 to 173 °C

INPUT: Proceed to CC(=O)c1ccc2c(c1)CCc1ccccc1-2
OUTPUT: 58 to 60 °C

INPUT: Proceed to CCn1c(C)c(C(C)=O)c(N)c1-c1ccccc1
OUTPUT: 107 to 108 °C

INPUT: Proceed to CC(C)(C)OC(=O)NC1COCCCC=CC2CC2(C(=O)NS(=O)(=O)C2CC2)NC(=O)C2CC(OC(=O)Nc3ccccc3Oc3ccccc3)CN2C1=O (centres undefined)
OUTPUT: 151 to 153 °C

* * *

Listed below: melting point values for each entry.

Record excerpt, results attached:
INSERT INTO results (molecule, assaymetric, assayresult) VALUES
  ('Clc1nc(N2CCCCC2)c2nc(Cl)nc(N3CCCCC3)c2n1', 'melting point', '240 to 241 °C'),
  ('CN(Cc1sc2c(=O)c(C(=O)NCc3ccc(Cl)cc3)cn(C)c2c1CN)C[C@@H](O)c1ccccn1', 'melting point', '144 to 148 °C'),
  ('N#CCCNC(=O)c1cccc(-c2ccc3c(c2)C(c2ccc(Cl)cc2Cl)CC3)c1 (stereo not given)', 'melting point', '112 to 114 °C'),
  ('CC(=O)NNC(=N)CCCCn1cnc(NC(N)=NCC(F)(F)F)n1', 'melting point', '157 to 159 °C');

Okay, next one:
INPUT: Given CCc1c(Oc2ccc(C(F)(F)F)cc2[N+](=O)[O-])nn(C(=O)NC)c1C , state its recorded melting point.
OUTPUT: 81 to 82 °C

* * *

assayMetric: melting point

Record excerpt, results attached:
INSERT INTO assay_data (structuresmiles, assayresult) VALUES
  ('Cc1cc(O)cc2c1CCC2(C)C', '80 to 81 °C'),
  ('O=C(O)Cc1noc2cc(F)ccc12', '132 to 133 °C'),
  ('CCCCOc1cc(Cl)c(OCCCC)cc1N', '43 to 44 °C');

INPUT: Given CNC(=N)N(C)Cc1ccc(C)cc1 , state its recorded melting point.
OUTPUT: 118 to 125 °C

INPUT: Proceed to O=c1c2cc(F)c(N3CCCC3)nc2n(Cc2ccccc2)c(=O)n1OCc1ccccc1
OUTPUT: 171 to 172 °C

INPUT: Proceed to CC(=O)Nc1ccc(S(=O)(=O)N(C)c2ccc(O)cc2)cc1
OUTPUT: 202 to 203 °C

* * *

assayMetric: melting point

Record excerpt, results attached:
INSERT INTO measurements (molecule, assaymetric, assayresult) VALUES
  ('OCC1OC(n2cnc3c(Cl)cc(Cl)nc32)C(O)C1O (stereo not given)', 'melting point', '148 to 150 °C'),
  ('CCCCn1c(=O)c2nc(-c3ccc(/C=C/C(=O)O)cc3)[nH]c2n(C)c1=O', 'melting point', '> 300 °C'),
  ('CC(C)Cc1nc2ccc(Cl)cc2c(-c2ccccc2)c1CN', 'melting point', '114 to 116 °C'),
  ('COC1=C(OC)C(=O)c2cc(Cl)ccc2C1=O', 'melting point', '125 to 126 °C');

Okay, next one:
INPUT: Given Cc1nc(N2CCN(CC3CCCCC3)C2=O)sc1C(=O)NCc1cccnc1 , state its recorded melting point.
OUTPUT: 134 to 136 °C

* * *

assayMetric: melting point

Record excerpt, results attached:
INSERT INTO results (structuresmiles, assayresult) VALUES
  ('Cc1cccc(=O)c(NC(=O)C2=C(O)c3ccccc3S(=O)(=O)N2C)c1', '235 to 242 °C'),
  ('O=C1c2ccccc2C(=O)N1SN1C(=O)c2ccccc2C1=O', '301 to 315 °C'),
  ('CCOC(=O)Cc1c(C(=O)O)c(C)cn1C', '182 to 185 °C'),
  ('Cn1cc(C(=O)NCc2ccc(Cl)cc2)c(=O)c2cc(COCC(=O)c3ccccc3)sc21', '209 °C');

Okay, next one:
INPUT: Given COc1ccc(-c2nnc(N)nc2-c2ccc(OC)cc2)cc1 , state its recorded melting point.
OUTPUT: 179 to 181 °C

* * *

assayMetric: melting point

INSERT INTO results (molecule, assaymetric, assayresult) VALUES
  ('COc1cccc(/C=C/c2nc3c([nH]2)c(=O)n(C)c(=O)n3C)c1OC', 'melting point', '289 to 290 °C');

INPUT: Given CC(=O)N(C)c1c(C(=O)c2cccc(Cl)c2)[nH]c2cc(Cl)ccc12 , state its recorded melting point.
OUTPUT: 202 to 203 °C

INPUT: Proceed to CC1(C)CC(=O)C2=C(C1)NC1=C(C(=O)CC(C)(C)C1)C2c1cc(Cl)cc(Cl)c1
OUTPUT: 288 to 290 °C

INPUT: Proceed to CCOC(=O)C(=O)Nc1cc2c3c(cccc3c1)C(=O)OC2=O
OUTPUT: 275 to 276 °C

INPUT: Proceed to O=C1CC(C(=O)C(F)(F)F)Cc2ccccc21 (stereo not given)
OUTPUT: 48 to 49 °C

INPUT: Proceed to CC(C)(C)NS(=O)(=O)c1c(CO)nsc1OCC(F)(F)F
OUTPUT: 113 to 116 °C

INPUT: Proceed to COC(=O)c1cccc2c1c1c(OC)c3c(cc1n2Cc1ccccc1)CCCC3
OUTPUT: 144 to 146 °C

INPUT: Proceed to CCON=C(C)c1cccc(Oc2nc(OC)cc(OC)n2)c1C(=O)OC
OUTPUT: 93 to 95 °C

INPUT: Proceed to c1cnc2ccc(Cn3cnc4ccc(-c5cn[nH]c5)nc43)cc2c1
OUTPUT: 214 to 216 °C

INPUT: Proceed to CCC1(C)C(=O)c2c(cc(O)c(Cl)c2Cl)C1c1ccccc1 (stereo not given)
OUTPUT: 248 °C

INPUT: Proceed to CC(=O)N1CCN(C)C1C(c1ccccc1)c1ccccc1 (stereo not given)
OUTPUT: 164 to 165 °C

INPUT: Proceed to Cc1cc(C)c(Nc2nc(C)ncc2S(=O)(=O)c2ccc(-c3cccnc3)cc2)c(C)c1
OUTPUT: 190 to 192 °C

* * *

Listed below: melting point values for each entry.

INSERT INTO results (compound, assayresult) VALUES
  ('COc1cc(OCCN2CCCC2)cc2nc(-c3cc(C)nc(C)c3)[nH]c(=O)c12', '227 to 229 °C'),
  ('Cc1[nH]c2cccc3c2c1CC1C3=CC(C(=O)NN)CN1C (centres undefined)', '235 to 240 °C');

INPUT: Given COC(=O)C=CC(C)=Cc1cc(N)ccc1Cl , state its recorded melting point.
OUTPUT: 47 to 50 °C

INPUT: Proceed to CC(=O)Nc1cc(-c2ccc(S(C)(=O)=O)cc2)c(-c2ccc(F)cc2)s1
OUTPUT: 80 to 92 °C

INPUT: Proceed to COc1cccc2oc(C(=O)c3cccc(C(F)(F)F)c3)c(C)c12
OUTPUT: 91 to 92 °C

INPUT: Proceed to COc1ccc(COc2ccc(COc3ccc4c(c3)CCC(CN(C)C)C4)cc2)cc1 (centres undefined)
OUTPUT: 106 to 111 °C

* * *

Listed below: melting point values for each entry.

INSERT INTO results (molecule, assayresult) VALUES
  ('CS(=O)(=O)OCCOCCOC(=O)Cc1ccccc1Nc1c(Cl)cccc1Cl', '87 °C'),
  ('Cc1ccc(NC(=O)N(C)Cc2cccc3c2CN(C2CCC(=O)NC2=O)C3=O)cc1Cl (centres undefined)', '248 to 250 °C'),
  ('C=Cn1cc(C(=O)OCC)c(=O)c2c(C)c(F)c(F)c(F)c21', '134 to 136 °C'),
  ('CC(=O)N1C[C@@H](P(c2ccc(C)cc2)c2ccc(C)cc2)[C@H](P(c2ccc(C)cc2)c2ccc(C)cc2)C1', '164 to 167 °C'),
  ('CCOC(=O)c1c2n(c3c(F)c(N4CCC(NC(=O)C(F)(F)F)C4)c(F)cc3c1=O)C(C)S2 (centres undefined)', '235 to 237 °C'),
  ('O=C1N[C@H]2CCN(C(=O)OCc3ccccc3)[C@H]2[C@H]1C1CC1 (relative stereo)', '141 to 149 °C'),
  ('O=C(CCC1C(=S)Nc2ccccc21)NCc1ccccc1 (centres undefined)', '114 °C'),
  ('Cc1ccc(C(=O)NC(NC(=O)Nc2cccnc2)C(Cl)(Cl)Cl)cc1 (centres undefined)', '162 to 163 °C');

Okay, next one:
INPUT: Given COc1cccc2c1c(=O)oc(=O)n2C , state its recorded melting point.
OUTPUT: 216 °C
